measurementProtocol: amyloid nucleation score (Sup35N fusion, yeast selection) (log enrichment); library NNK2; higher = more nucleation; inactive = no reads after selection;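 note: zero at mode of non-aggregating sequences after 7 days selection at 30°C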
endpoint: amyloid nucleation score

In the examples that follow, each entry is paired with its recorded amyloid nucleation score.
LDMGCNRPEVYGNKCAMVSW
0.75
STEERRWNN
-0.217
VSFTARSRHVDGGLSS
1.04
LAGCSMSGVVEC
1.13
LLNCNCIVV
8.57

// sample TCVCWGPCRSV , its amyloid nucleation score was -0.895

// sample SVTVTSLWHGTEL , its amyloid nucleation score was -0.22

// sample YLRRGNKLCESTLVVTCTMV , its amyloid nucleation score was -0.087

// sample TSSYTWGVEPDASRTILVDT , its amyloid nucleation score was 0.4

// sample TEIHNT , its amyloid nucleation score was inactive

// sample NVCNTNWESVRKAWFSNMMV , its amyloid nucleation score was 0.775

// sample CNGFVWLFSVGYFNNRFMWF , its amyloid nucleation score was inactive

// sample NMCWFKPG , its amyloid nucleation score was -0.329

// sample VELSHFCTGRNSYSRRWISM , its amyloid nucleation score was 0.422

// sample SVGEFSVRWAACGDLWCW , its amyloid nucleation score was 0.725

// sample CDGSGCTDFVVCLHK , its amyloid nucleation score was -0.195

// sample IFNVSLGYLTLIMVHYEFLH , its amyloid nucleation score was 5.73

// sample FMSFVYLHVPSANTCI , its amyloid nucleation score was 3.83

// sample TMELFLRRFYIWIKDIDNGR , its amyloid nucleation score was inactive

// sample HWFNSTRK , its amyloid nucleation score was 0.187
